Where do these numbers come from? They come from paper PMC11790914.

molecular target: ABL1 (Homo sapiens, UniProt P00519); construct: made in house; assay: Liability panel screening by DSF: ABL1; assay type: binding; conditions: DSF, 20 µM, n=2; read-out: Mean ΔTM ABL1
Sequence (P00519 whole entry, species assumed): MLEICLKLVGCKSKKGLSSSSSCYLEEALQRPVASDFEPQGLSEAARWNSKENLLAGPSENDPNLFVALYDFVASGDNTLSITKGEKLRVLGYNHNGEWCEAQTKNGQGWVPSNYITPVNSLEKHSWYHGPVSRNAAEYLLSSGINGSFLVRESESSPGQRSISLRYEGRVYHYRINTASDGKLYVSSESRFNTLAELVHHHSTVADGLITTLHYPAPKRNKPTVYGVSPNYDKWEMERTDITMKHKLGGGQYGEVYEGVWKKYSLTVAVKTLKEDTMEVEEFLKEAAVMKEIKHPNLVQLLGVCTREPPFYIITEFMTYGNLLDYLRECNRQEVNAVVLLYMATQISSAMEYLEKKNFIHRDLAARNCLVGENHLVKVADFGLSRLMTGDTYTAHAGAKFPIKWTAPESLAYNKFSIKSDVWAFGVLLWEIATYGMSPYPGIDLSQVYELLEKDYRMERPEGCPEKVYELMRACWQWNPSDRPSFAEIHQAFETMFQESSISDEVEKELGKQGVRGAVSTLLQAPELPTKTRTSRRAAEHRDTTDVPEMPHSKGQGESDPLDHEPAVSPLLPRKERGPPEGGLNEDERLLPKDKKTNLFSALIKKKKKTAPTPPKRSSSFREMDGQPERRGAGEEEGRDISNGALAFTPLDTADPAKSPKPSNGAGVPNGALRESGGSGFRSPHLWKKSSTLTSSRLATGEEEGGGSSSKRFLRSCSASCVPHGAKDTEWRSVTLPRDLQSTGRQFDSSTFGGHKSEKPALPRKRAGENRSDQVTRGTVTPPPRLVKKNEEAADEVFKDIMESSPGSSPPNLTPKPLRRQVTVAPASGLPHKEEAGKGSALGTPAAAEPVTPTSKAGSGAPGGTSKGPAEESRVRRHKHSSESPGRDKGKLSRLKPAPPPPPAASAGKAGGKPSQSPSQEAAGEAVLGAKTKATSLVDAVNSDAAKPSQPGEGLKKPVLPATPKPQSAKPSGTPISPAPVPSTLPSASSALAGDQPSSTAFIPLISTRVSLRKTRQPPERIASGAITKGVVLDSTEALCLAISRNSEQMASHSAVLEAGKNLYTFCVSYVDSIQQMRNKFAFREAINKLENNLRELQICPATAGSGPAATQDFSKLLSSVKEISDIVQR
Would you kindly list ΔTm at 20 µM for each of these molecules?
Response body: numeric value in °C, unit text excluded.

Give the measured ΔTm at 20 µM of COc1ccc2c(c1)OC(C)(C)C(c1ccccc1)C2c1ccc(OCCN2CCCC2)cc1 (stereo not drawn) [Ormeloxifene] . -0.02

Give the measured ΔTm at 20 µM of CC(C)c1ccc(/C=N/NC(=O)c2ccc(O)cc2)cc1 [GSK4716] . 1.07

Give the measured ΔTm at 20 µM of Cc1ccc2c(NC[C@](O)(CC(C)(C)c3cc(F)cc4c3OCC4)C(F)(F)F)cccc2n1 [Mapracorat] . 0.24

Give the measured ΔTm at 20 µM of N#Cc1ccc([C@H]2CCCC[C@H]2O)cc1C(F)(F)F [PF-998425] . 0.55

Give the measured ΔTm at 20 µM of O=C(/C=C/c1ccc(O)cc1)c1ccc(O)cc1O [Isoliquiritigenin] . 6.6

Give the measured ΔTm at 20 µM of CC/C(=C(/CC)c1ccc(O)cc1)c1ccc(O)cc1 [Diethylstilbestrol] . -0.96

Give the measured ΔTm at 20 µM of N#CC(Cc1ccc(O)cc1)c1ccc(O)cc1 (stereo not drawn) [Diarylpropionitrile] . 0.17

Give the measured ΔTm at 20 µM of CCN(CC)c1ccc(/C=N/NC(=O)c2ccc(O)cc2)cc1 [DY131] . 0.66

Give the measured ΔTm at 20 µM of Cc1c(-c2ccc(O)cc2)n(Cc2ccc(OCCN3CCCCCC3)cc2)c2ccc(O)cc12 [Bazedoxifene] . -0.21

Give the measured ΔTm at 20 µM of Oc1ccc(-c2nc3cc(O)cc(Br)c3o2)cc1 [WAY200070] . 2.05

Give the measured ΔTm at 20 µM of CN(C)CCOc1ccc(/C(=C(/CCCO)c2ccccc2)c2ccc(O)cc2)cc1 [GSK5182] . 0.43

Give the measured ΔTm at 20 µM of C#C[C@]1(O)CC[C@H]2[C@@H]3CCc4cc(O)ccc4[C@H]3CC[C@@]21C [Ethinylestradiol] . -0.29

###

molecular target: FGFR3 (Homo sapiens); construct: made in house; experiment: Liability panel screening by DSF: FGFR3; type: binding; conditions: DSF, 20 µM, n=2; read-out: Mean ΔTM FGFR3
Sequence (P22607 23-806, species assumed): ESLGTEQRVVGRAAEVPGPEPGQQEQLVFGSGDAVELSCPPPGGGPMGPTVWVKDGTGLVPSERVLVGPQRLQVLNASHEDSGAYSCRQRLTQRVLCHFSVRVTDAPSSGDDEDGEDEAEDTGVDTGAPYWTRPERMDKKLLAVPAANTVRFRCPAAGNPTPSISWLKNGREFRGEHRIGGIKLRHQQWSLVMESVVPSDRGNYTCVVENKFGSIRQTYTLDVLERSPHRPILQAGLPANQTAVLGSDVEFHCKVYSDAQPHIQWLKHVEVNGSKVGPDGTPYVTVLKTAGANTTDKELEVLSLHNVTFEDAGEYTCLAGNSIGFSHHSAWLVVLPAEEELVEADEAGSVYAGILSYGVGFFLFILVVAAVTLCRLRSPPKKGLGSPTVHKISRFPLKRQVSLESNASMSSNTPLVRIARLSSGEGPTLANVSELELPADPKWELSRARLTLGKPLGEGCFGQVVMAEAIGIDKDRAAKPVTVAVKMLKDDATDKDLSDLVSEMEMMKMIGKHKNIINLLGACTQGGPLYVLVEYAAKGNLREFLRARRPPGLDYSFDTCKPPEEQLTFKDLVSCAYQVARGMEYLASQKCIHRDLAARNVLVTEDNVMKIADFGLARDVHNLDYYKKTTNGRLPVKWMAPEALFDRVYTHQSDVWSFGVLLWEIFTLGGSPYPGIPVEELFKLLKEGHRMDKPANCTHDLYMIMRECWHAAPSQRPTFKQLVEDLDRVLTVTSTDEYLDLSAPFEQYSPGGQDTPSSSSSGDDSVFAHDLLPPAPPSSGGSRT
Lab note: cut-off is -0.04 °C. Strictly less in ΔTm at 20 µM is label 1. Exactly -0.04 °C or more is label 0.

I wonder whether CC(C)c1ccc(/C=N/NC(=O)c2ccc(O)cc2)cc1 [GSK4716] has ΔTm at 20 µM below -0.04 °C. Can you tell? label 0

I wonder whether CC(=O)OCC(=O)[C@@]1(O)CC[C@H]2[C@@H]3CCC4=CC(=O)CC[C@]4(C)[C@@]3(F)[C@@H](O)C[C@@]21C [Fludrocortisone acetate] has ΔTm at 20 µM below -0.04 °C. Can you tell? label 1

I wonder whether Cc1c(-c2ccc(O)cc2)n(Cc2ccc(OCCN3CCCCCC3)cc2)c2ccc(O)cc12 [Bazedoxifene] has ΔTm at 20 µM below -0.04 °C. Can you tell? label 1

I wonder whether CC(=O)O[C@]1(C(C)=O)CC[C@H]2[C@@H]3CCC4=CC(=O)CCC4=C3[C@@H](c3ccc(N(C)C)cc3)C[C@@]21C [Ulipristal acetate] has ΔTm at 20 µM below -0.04 °C. Can you tell? label 1

I wonder whether N#CC(Cc1ccc(O)cc1)c1ccc(O)cc1 (centres unmarked) [Diarylpropionitrile] has ΔTm at 20 µM below -0.04 °C. Can you tell? label 0

I wonder whether C#C[C@]1(O)CC[C@H]2[C@@H]3CCc4cc(O)ccc4[C@H]3CC[C@@]21C [Ethinylestradiol] has ΔTm at 20 µM below -0.04 °C. Can you tell? label 1

I wonder whether N#Cc1ccc([C@H]2CCCC[C@H]2O)cc1C(F)(F)F [PF-998425] has ΔTm at 20 µM below -0.04 °C. Can you tell? label 1
